- Test system: HCV replicon cells
- assay-text: HCV replicon FRET / luciferase assay (96-well plates)
- Assay type: cell-based
- applied-conditions: Hepatitis C virus, Table 1a; HCV replicon; read-out: EC50
pEC50: −log10 of the molar value.
measured-metric: pEC50

# compound, measured-metric, reported-result
records = [
    ("CNC(=O)c1cccc(-c2ccc3oc(-c4ccc(F)cc4)c(C(=O)NC)c3c2)c1", "pEC50", "6.00 to 6.60"),
    ("CNC(=O)c1c(-c2ccc(F)cc2)oc2ccc(-c3ccc(C(=O)NCC(=O)OC)cc3)cc12", "pEC50", "5.00 to 6.00"),
    ("CNC(=O)c1c(-c2ccc(F)cc2)oc2ccc(-c3cccc(C(=O)NCCC(C)(C)C)c3)cc12", "pEC50", "> 6.60"),
    ("CNC(=O)c1c(-c2ccc(F)cc2)oc2ccc(-c3cccc(C(=O)NC(C)(C)c4ccccc4)c3)cc12", "pEC50", "> 6.60"),
    ("CNC(=O)c1c(-c2ccc(F)cc2)oc2ccc(-c3cccc(C(=O)NC(C)(C)c4ccccc4)c3)c([N+](=O)[O-])c12", "pEC50", "> 6.60"),
]

List the reported pEC50 of each compound below.
1. CNC(=O)c1c(-c2ccc(F)cc2)oc2ccc(-c3cccc(C(=O)NCc4ccc(F)cc4)c3)cc12
2. CNC(=O)c1c(-c2ccc(F)cc2)oc2ccc(-c3cccc(C(=O)NC(C)(C)CC(C)=O)c3)cc12
3. CNC(=O)c1c(-c2ccc(F)cc2)oc2ccc(-c3ccc(C(=O)N(C)CCC#N)cc3)cc12
4. CNC(=O)c1c(-c2ccc(F)cc2)oc2ccc(-c3cccc(C(=O)NC(CC(C)C)C(N)=O)c3)cc12 (stereo not shown)
5. CNC(=O)c1c(-c2ccc(F)cc2)oc2ccc(-c3cccc(C(=O)Nc4nccs4)c3)cc12
6. CNC(=O)c1c(-c2ccc(F)cc2)oc2ccc(-c3ccc(C(=O)O)c(Cl)c3)cc12

(A)
> 6.60
6.00 to 6.60
< 5.00
6.00 to 6.60
6.00 to 6.60
< 5.00

List the reported pEC50 of each compound below.
1. CNC(=O)c1c(-c2ccc(F)cc2)oc2ccc(-c3ccc(OC)nc3OC)cc12
2. CNC(=O)c1c(-c2ccc(F)cc2)oc2ccc(-c3cccc(C(=O)NC(C)(C)c4ccccc4)c3)c(N)c12

(A)
1. < 5.91
2. > 6.60

###

- Tested on: HCV replicon cells
- assay-text: HCV replicon FRET / luciferase assay (96-well plates)
- Format: cell-based
- applied-conditions: Hepatitis C virus, Table 1a; HCV replicon; read-out: EC50
Please go through the items and note down their EC50.

// worked examples, EC50 included
# compound, tested-target, reported-result
measured = [
    ("CNC(=O)c1c(-c2ccc(F)cc2)oc2ccc(-c3cccc(C(=O)N4CCC(C)CC4)c3)cc12", "HCV replicon cells", "1000 to 10000 nM"),
    ("CNC(=O)c1c(-c2ccc(F)cc2)oc2ccc(-c3cccc(C(=O)N4CCCC(CO)C4)c3)cc12 (stereo not drawn)", "HCV replicon cells", "1000 to 10000 nM"),
    ("CNC(=O)c1c(-c2ccc(F)cc2)oc2ccc(-c3ccc(C(=O)O)c(F)c3)cc12", "HCV replicon cells", "> 10000 nM"),
    ("CNC(=O)c1c(-c2ccc(F)cc2)oc2ccc(-c3cccc(C(=O)Nc4ccnn4C)c3)cc12", "HCV replicon cells", "250 to 1000 nM"),
    ("CNC(=O)c1c(-c2ccc(F)cc2)oc2ccc(-c3cccc(C(=O)NC(C)(C)c4ccc(OC)cc4)c3)cc12", "HCV replicon cells", "< 250 nM"),
    ("CNC(=O)c1c(-c2ccc(F)cc2)oc2ccc(-c3cccc(C(=O)N4CCCC(O)C4)c3)cc12 (stereo not drawn)", "HCV replicon cells", "1000 to 10000 nM"),
]

List the reported EC50 of each compound below.
1. CNC(=O)c1c(-c2ccc(F)cc2)oc2ccc(-c3cc(C(F)(F)F)ccc3OC)cc12
2. CNC(=O)c1c(-c2ccc(F)cc2)oc2ccc(-c3cccc(C(=O)NCCN(C)C)c3)cc12
3. CNC(=O)c1c(-c2ccc(F)cc2)oc2ccc(-c3ccc(C(=O)N(C)C4CCN(C)C4)cc3)cc12 (stereo not drawn)

(A)
1. > 3700 nM
2. 1000 to 10000 nM
3. 1000 to 10000 nM
